- TARGET_ENTITY: T1, cytosolic domain of human Fis1 (Fis1_ΔTM, residues 1−123) (human, UniProt Q9Y3D6 1-123)
- T1 construct: mitochondrial fission protein 1 (Fis1), human, cytosolic domain with the C-terminal TM region truncated, residues 1-123; pQlinkH vector: N-terminal polyhistidine tag followed by a TEV site; also called Fis1_ΔTM WT; Fis1_WT; source: E. coli Rosetta2(DE3), purified (Ni-NTA, SEC)
- MEASUREMENT_PROTOCOL: SPR; Fis1_ΔTM WT or mutants immobilised by amine coupling; Bap31 constructs flowed at 30 μl/min; 25 °C; 20 mM HEPES pH 7.5, 100 mM NaCl, 0.005% Tween 20; BSA reference subtracted; equilibrium analysis
- CONDITION_DETAILS: both partners purified
PROPERTY_LABEL: pKd
Numbers only, as −log10 of the molar value.

I have this binder here, Bap31 coiled-coil 2 (Bap31_CC2, residues 168−246) WT (domain or fragment, human, UniProt P51572 168-246, looked up, B-cell receptor-associated protein 31 (Bap31), human, coiled-coil 2, residues 168-246; also called Bap31_CC2 WT; Bap31_WT; source: E. coli Rosetta2(DE3), purified (Ni-NTA, SEC)) LDVGNAEVKLEEENRSLKADLQKLKDELASTKQKLEKAENQVLAMRKQSEGLTKEYDRLLEEHAKLQAAVDGPMDKKEE , and I need its recorded pKd.
4.24
